system: NCI-H23; assay: NCI tumour cell line growth inhibition, 48 h
Calls of active or inactive are those of the source. No stated cut-off is given here; in the data, active = GI50 up to about 1.1 µM and inactive = higher.
Thanks in advance; please answer with one of these: 1 = active, -1 = inactive

Completed entries (count: 5):
[
  {
    "COMPOUND": "COc1cc(/C=C2\\NC(=S)C3Cc4c(OC)c(C)c(OC)c(OC)c4C2N3C)c(OC)c(C)c1OC (stereo not given)",
    "ASSIGNED_CLASS": -1
  },
  {
    "COMPOUND": "COC(=O)C12C3C4C5(C(=O)OC)C(C1C35C(=O)N(C(C)C)C(C)C)C42C(=O)N(C(C)C)C(C)C (stereo not given)",
    "ASSIGNED_CLASS": -1
  },
  {
    "COMPOUND": "O=C(C=C1SCCS1)/C=C\\c1ccc(Cl)cc1",
    "ASSIGNED_CLASS": -1
  },
  {
    "COMPOUND": "COc1cc([C@H]2CC(=O)C[C@H](c3cc(OC)c(OC)c(OC)c3)C23C(=O)c2ccccc2C3=O)cc(OC)c1OC",
    "ASSIGNED_CLASS": -1
  },
  {
    "COMPOUND": "O=S(=O)(c1ccccc1)c1ccc(-c2nc(-c3ccc4c(c3)Sc3ccccc3S4)cs2)cc1",
    "ASSIGNED_CLASS": -1
  }
]

Query block: Please state the recorded outcome for this compound: C/C(Cl)=N/OC(=O)Nc1ccc(S(N)(=O)=O)c(C)c1
Result block: -1

Query block: Assay result, entry CCOC(=O)c1nc2ccccc2nc1NCc1ccc(OC)c(OC)c1 — outcome?
Result block: -1

Query block: Test call, this compound: COc1cc2c(cc1OC)C(=O)/C(=C/c1ccccc1)C2
Result block: -1

Query block: Hi, do you know how O=C(CNC(=O)OCc1ccccc1)NCCCCC(NC(=O)OCc1ccccc1)C(=O)O (stereo not given) came out in this test?
Result block: -1

Query block: Could you kindly confirm the outcome this assay logged for C=C(C)[C@@H]1CCc2c(c(C)cc(O)c(=O)c2O)C1 ?
Result block: -1

---

test system: OVCAR-3; assay: NCI tumour cell line growth inhibition, 48 h
Where a name gives a salt, the structure may show the parent alone. Activity calls are given as the source filed them. Rule as the data show it: active = GI50 up to about 1.1 µM and inactive = higher.
PROPERTY: GI50

Below, 4 molecules whose answers are already recorded.
[
  {
    "MOLECULE": "COC(=O)[C@@H]1[C@H](O)CC[C@H]2[C@@]1(C)CC[C@@H](C)[C@]2(COC(C)=O)CC(=O)c1ccoc1",
    "READOUT_VALUE": "> 50 µM (inactive)"
  },
  {
    "MOLECULE": "CN[C@@H](C)[C@@H](O)c1ccccc1 [PSEUDOEPHEDRINE HYDROCHLORIDE]",
    "READOUT_VALUE": "> 10 µM (inactive)"
  },
  {
    "MOLECULE": "COc1ccc(/C=C/NC=O)cc1",
    "READOUT_VALUE": "> 100 µM (inactive)"
  },
  {
    "MOLECULE": "O=c1c(O)c(-c2ccc(O)c(O)c2)oc2cc(O)cc(O)c12 [QUERCETIN]",
    "READOUT_VALUE": "> 100 µM (inactive)"
  }
]

Query block: Lookup: GI50 / OVCAR-3 / CC1(C)SCc2nc3ccccc3n21
Result block: > 100 µM (inactive)
